- assayed-system: MerTK (Homo sapiens)
- Construct: endogenous in cells; host or cells: Jurkat cells
- test-method-notes: MerTk degradation in Jurkat cells (Western blot)
- Type: cell-based
- condition-details: Jurkat, 4 h, 0.001-1 μM, 4 hour-incubation at 37° C., read-out: Jurkat Max % MerTK Degradation
Listed below: Dmax values for each entry.
observable: Dmax

compound="CN1CCN(Cc2ccc(-c3ccc(CO[C@H]4CCC[C@@H]4NC(=O)c4cc(-c5cnn(CCOCCCc6cccc7c6n(C)c(=O)n7C6CCC(=O)NC6=O)c5)cnc4N)cc3)cc2)CC1 (stereo partly drawn)" observable=Dmax readout_value="< 20%"
compound=Cn1c(=O)n([C@H]2CCC(=O)NC2=O)c2cccc(COCCN3CCN(Cc4ccc(-c5cn([C@H]6CC[C@H](O)CC6)c6nc(NCCC(F)(F)F)ncc56)cc4)CC3)c21 observable=Dmax readout_value="> 50%"
compound="Cn1c(=O)n(C2CCC(=O)NC2=O)c2ccc(CCCOCCN3CCC(N4CCN(Cc5ccc(-c6cn([C@H]7CC[C@H](O)CC7)c7nc(NCCC(F)(F)F)ncc67)cc5)CC4)C3)cc21 (stereo partly drawn)" observable=Dmax readout_value="> 50%"

###

- assayed-system: MerTK (Homo sapiens, UniProt Q12866)
- Construct: endogenous in cells; host or cells: Jurkat cells
- Sequence (Q12866 21-999): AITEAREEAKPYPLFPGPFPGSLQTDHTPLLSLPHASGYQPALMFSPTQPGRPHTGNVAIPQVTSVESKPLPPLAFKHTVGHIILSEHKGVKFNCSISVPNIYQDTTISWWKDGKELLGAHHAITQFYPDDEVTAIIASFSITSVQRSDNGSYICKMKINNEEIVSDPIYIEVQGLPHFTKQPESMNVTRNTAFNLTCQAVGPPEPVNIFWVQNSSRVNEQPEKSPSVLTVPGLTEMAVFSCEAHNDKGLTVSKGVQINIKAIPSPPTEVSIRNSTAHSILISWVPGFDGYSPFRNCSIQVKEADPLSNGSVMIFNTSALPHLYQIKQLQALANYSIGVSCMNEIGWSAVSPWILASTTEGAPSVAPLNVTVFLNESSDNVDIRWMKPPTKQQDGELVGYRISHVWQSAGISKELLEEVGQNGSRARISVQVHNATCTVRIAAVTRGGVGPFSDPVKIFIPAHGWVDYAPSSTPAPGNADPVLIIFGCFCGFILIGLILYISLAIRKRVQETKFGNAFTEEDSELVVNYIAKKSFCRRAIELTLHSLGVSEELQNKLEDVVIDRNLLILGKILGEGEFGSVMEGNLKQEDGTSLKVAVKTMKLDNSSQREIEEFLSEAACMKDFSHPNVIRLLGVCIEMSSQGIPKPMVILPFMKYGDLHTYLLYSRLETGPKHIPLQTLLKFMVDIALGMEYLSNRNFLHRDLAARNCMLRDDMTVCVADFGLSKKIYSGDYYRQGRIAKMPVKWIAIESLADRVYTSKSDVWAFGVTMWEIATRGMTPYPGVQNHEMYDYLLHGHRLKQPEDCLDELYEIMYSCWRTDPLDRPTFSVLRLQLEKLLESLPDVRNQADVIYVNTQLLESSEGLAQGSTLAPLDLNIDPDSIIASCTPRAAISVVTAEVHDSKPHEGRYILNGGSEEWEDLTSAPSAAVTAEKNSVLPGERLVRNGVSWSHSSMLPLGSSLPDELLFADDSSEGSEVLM
- test-method-notes: MerTk degradation in Jurkat cells (Western blot)
- Type: cell-based
- condition-details: Jurkat, 4 h, 0.001-1 μM, 4 hour-incubation at 37° C., read-out: Jurkat Max % MerTK Degradation
observable: Dmax

compound="C[C@H](CC(F)(F)F)Nc1ncc2c(-c3ccc(CN4CCN(CCCOCCCc5ccc6c(c5)n(C)c(=O)n6C5CCC(=O)NC5=O)CC4)cc3)cn([C@H]3CC[C@H](O)CC3)c2n1 (stereo partly shown)" observable=Dmax readout_value="> 50%"
compound=Cc1ncsc1-c1ccc(CNC(=O)[C@@H]2C[C@@H](O)CN2C(=O)[C@@H](NC(=O)C2(F)CC2)C(C)(C)C)c(OCCCCCCCN2CCN(Cc3ccc(-c4cn([C@H]5CC[C@H](O)CC5)c5nc(NCCC(F)(F)F)ncc45)cc3)CC2)c1 observable=Dmax readout_value="> 50%"
compound="CCC[C@H](C)Nc1ncc2c(n1)n([C@H]1CC[C@H](O)CC1)cc2[C@H]1CC[C@@H](CN2CCN(CCCOC3CN(Cc4ccc5c(c4)n(C)c(=O)n5C4CCC(=O)NC4=O)C3)CC2)CC1 (stereo partly shown)" observable=Dmax readout_value="> 50%"
compound=CCCCNc1ncc2c(-c3ccc(CN4CCN(CCOCCCc5ccc6c(c5)n(C)c(=O)n6[C@H]5CCC(=O)NC5=O)CC4)cc3)cn([C@H]3CC[C@H](O)CC3)c2n1 observable=Dmax readout_value="> 50%"
compound=Cc1ncsc1-c1ccc(CNC(=O)[C@@H]2C[C@@H](O)CN2C(=O)[C@@H](NC(=O)COCCOCCOCCOCCn2ccc3c(Nc4nc(N[C@@H]5CCCC[C@@H]5N)nnc4C(N)=O)cccc32)C(C)(C)C)cc1 observable=Dmax readout_value="< 20%"
compound=CN1C(=O)CC[C@H](n2c(=O)n(C)c3cc(CCCOCCOCCN4CCN(Cc5ccc(-c6cn([C@H]7CC[C@H](O)CC7)c7nc(NCCC(F)(F)F)ncc67)cc5)CC4)ccc32)C1=O observable=Dmax readout_value="20 to 50%"
compound="CN1CCN(Cc2ccc(-c3ccc(CO[C@H]4CCC[C@@H]4NC(=O)c4cc(-c5cnn(CCOCCOCCOCCCc6ccc7c(c6)n(C)c(=O)n7C6CCC(=O)NC6=O)c5)cnc4N)cc3)cc2)CC1 (stereo partly shown)" observable=Dmax readout_value="20 to 50%"
compound="C[C@@H](CC(F)(F)F)Nc1ncc2c(-c3ccc(CN4CCN(CCCOC5CN(Cc6ccc7c(c6)n(C)c(=O)n7C6CCC(=O)NC6=O)C5)CC4)cc3)cn([C@H]3CC[C@H](O)CC3)c2n1 (stereo partly shown)" observable=Dmax readout_value="20 to 50%"
compound="CCC[C@H](C)Nc1ncc2c(-c3ccc(CN4CCN(C5CC(OCCc6ccc7c(c6)n(C)c(=O)n7C6CCC(=O)NC6=O)C5)CC4)cc3)cn([C@H]3CC[C@](C)(O)CC3)c2n1 (stereo partly shown)" observable=Dmax readout_value="> 50%"
compound="N[C@H]1CCCC[C@H]1Nc1cc2nc[nH]c(=O)c2c(Nc2cccc3c2ccn3CCOCCOCCOCCOCCNc2cccc3c2C(=O)N(C2CCC(=O)NC2=O)C3=O)n1 (stereo partly shown)" observable=Dmax readout_value="> 50%"
